Kindly supply the reported hERG current change (%, negative = inhibition) at 10uM values for the records listed here.
Molecular target: human ether-à-go-go-related gene (hERG) potassium channel (human, UniProt Q12809);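 also: peak tail current of the secondary pulse compared with the same well before compound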
Sequence (Q12809 whole entry, looked up): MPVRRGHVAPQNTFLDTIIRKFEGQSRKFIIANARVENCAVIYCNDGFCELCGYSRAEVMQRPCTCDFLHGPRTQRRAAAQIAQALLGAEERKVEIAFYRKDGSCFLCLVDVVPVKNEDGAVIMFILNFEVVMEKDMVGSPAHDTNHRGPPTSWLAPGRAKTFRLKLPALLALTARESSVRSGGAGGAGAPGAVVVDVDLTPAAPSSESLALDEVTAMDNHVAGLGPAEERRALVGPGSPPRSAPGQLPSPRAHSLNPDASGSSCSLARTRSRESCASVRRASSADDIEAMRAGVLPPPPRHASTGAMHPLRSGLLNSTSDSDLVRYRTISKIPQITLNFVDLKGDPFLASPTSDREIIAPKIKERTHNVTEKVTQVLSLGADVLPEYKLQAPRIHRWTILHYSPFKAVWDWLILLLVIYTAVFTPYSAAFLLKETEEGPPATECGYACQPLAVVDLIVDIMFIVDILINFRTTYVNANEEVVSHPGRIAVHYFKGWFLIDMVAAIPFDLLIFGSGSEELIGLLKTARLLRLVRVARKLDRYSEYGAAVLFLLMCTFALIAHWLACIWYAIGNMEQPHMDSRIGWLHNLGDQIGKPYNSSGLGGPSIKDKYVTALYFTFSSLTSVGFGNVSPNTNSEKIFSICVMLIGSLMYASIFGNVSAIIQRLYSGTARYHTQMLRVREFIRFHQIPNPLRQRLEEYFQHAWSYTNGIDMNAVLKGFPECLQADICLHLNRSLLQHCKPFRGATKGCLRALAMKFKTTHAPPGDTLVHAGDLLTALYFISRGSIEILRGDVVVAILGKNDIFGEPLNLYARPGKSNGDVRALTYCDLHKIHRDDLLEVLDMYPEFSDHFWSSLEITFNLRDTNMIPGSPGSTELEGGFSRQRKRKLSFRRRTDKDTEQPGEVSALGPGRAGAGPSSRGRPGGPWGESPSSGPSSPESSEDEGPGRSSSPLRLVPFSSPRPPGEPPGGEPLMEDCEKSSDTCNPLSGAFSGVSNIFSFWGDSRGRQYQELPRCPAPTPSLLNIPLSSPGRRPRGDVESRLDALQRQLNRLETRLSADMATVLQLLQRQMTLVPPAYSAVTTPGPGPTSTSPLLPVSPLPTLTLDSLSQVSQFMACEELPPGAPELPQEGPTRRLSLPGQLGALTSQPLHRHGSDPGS
Assay: primary screen, population patch clamp on CHO cells stably expressing hERG; higher = less effect of the substance
Hit rate of the full screen: of about 310,000 compounds, about 14,000 (4.5%) showed an effect of 50% or more. The effect is printed as a negative number. Many of the other results were omitted from the sample, so strong results are more common in it than they were.
Give just the number in %; leave the unit off.

Which hERG current change (%, negative = inhibition) at 10uM is reported for this compound? Cc1noc(C)c1CSc1nc2ccccc2s1 -10.1

Which hERG current change (%, negative = inhibition) at 10uM is reported for this compound? Cl.Fc1ccccc1COc1ccc(Br)cc1CNCC1CCCO1 (stereo not drawn) -68.3

Which hERG current change (%, negative = inhibition) at 10uM is reported for this compound? COc1ccc(Br)cc1CNCC1CCCO1 (stereo not drawn) 5.7

Which hERG current change (%, negative = inhibition) at 10uM is reported for this compound? Brc1cccc(CNCC2CCCO2)c1 (stereo not drawn) 4.72

Which hERG current change (%, negative = inhibition) at 10uM is reported for this compound? Brc1ccc(OCc2ccccc2)c(CNCC2CCCO2)c1.Cl (stereo not drawn) -50

Which hERG current change (%, negative = inhibition) at 10uM is reported for this compound? Cl.Fc1ccc(COc2ccc(Br)cc2CNCC2CCCO2)cc1 (stereo not drawn) -63.5

====

Molecular target: human ether-à-go-go-related gene (hERG) potassium channel (human);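 also: peak tail current of the secondary pulse compared with the same well before compound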
Test: primary screen, population patch clamp on CHO cells stably expressing hERG; higher = less effect of the substance
The whole screen tested about 310,000 compounds, of which about 14,000 (4.5%) showed an effect of 50% or more. Effects have a minus sign here. For the sample, strong results were picked, then their nearest neighbours and some compounds at random.
Kindly supply the reported hERG current change (%, negative = inhibition) at 10uM values for the records listed here.
Give just the number in %; leave the unit off.

Which hERG current change (%, negative = inhibition) at 10uM is reported for this molecule? CCC1C(=O)N=C(SCC(=O)Nc2cccc3ccccc23)NC1=O (stereo not shown) -7.84

Which hERG current change (%, negative = inhibition) at 10uM is reported for this molecule? CCOc1ccc(N2C(=O)CC(NCCNc3ccc([N+](=O)[O-])cn3)C2=O)cc1 (stereo not shown) -77.5

Which hERG current change (%, negative = inhibition) at 10uM is reported for this molecule? CCC(Sc1nncn1C)C(=O)Nc1nnc(-c2ccccc2Cl)s1 (stereo not shown) -11

Which hERG current change (%, negative = inhibition) at 10uM is reported for this molecule? CCCOc1ccc(N2C(=O)CC(NCc3ccc(S(N)(=O)=O)cc3)C2=O)cc1 (stereo not shown) 4.38

Which hERG current change (%, negative = inhibition) at 10uM is reported for this molecule? CCOc1ccc(N2C(=O)CC(NC3CCN(C(=O)c4cccs4)CC3)C2=O)cc1 (stereo not shown) -24.7

Which hERG current change (%, negative = inhibition) at 10uM is reported for this molecule? CCCOc1ccc(N2C(=O)CC(NCCc3ccc(S(N)(=O)=O)cc3)C2=O)cc1 (stereo not shown) -5.4

Which hERG current change (%, negative = inhibition) at 10uM is reported for this molecule? COc1ccc(COc2cc(-c3cccc(OC)c3)nc3ccc(NC(=O)C(C)C)cc23)cc1 3.04

Which hERG current change (%, negative = inhibition) at 10uM is reported for this molecule? CCCOc1ccc(N2C(=O)CC(NCCNc3ccc(S(=O)(=O)CC)cc3)C2=O)cc1 (stereo not shown) -59.9

Which hERG current change (%, negative = inhibition) at 10uM is reported for this molecule? CCOc1ccc(N2C(=O)CC(NCCc3ccncc3)C2=O)cc1 (stereo not shown) -5.67

Which hERG current change (%, negative = inhibition) at 10uM is reported for this molecule? CCn1nc(C)c(Br)c1-c1nc(-c2cccc(C)c2)no1 19.1

====

Molecular target: human ether-à-go-go-related gene (hERG) potassium channel (human, UniProt Q12809);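 also: peak tail current of the secondary pulse compared with the same well before compound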
Assay: primary screen, population patch clamp on CHO cells stably expressing hERG; higher = less effect of the substance
Experimental: Briefly, Chinese hamster ovary (CHO) cells stably expressing the hERG channel were dislodged from tissue culture flasks and dispensed into PPC plates. […] During the recording, background leak currents were estimated by a 100 ms step to -80 mV from an initial holding potential of -70 mV and subtracted from the subsequent current measurement. The campaign was conducted in two phases using slight differences in recording protocol. […]
The whole screen tested about 310,000 compounds, of which about 14,000 (4.5%) showed an effect of 50% or more. The effect is printed as a negative number. What follows is part of a selection rich in strong results, with near analogues and random picks from the rest.
Kindly supply the reported hERG current change (%, negative = inhibition) at 10uM values for the records listed here.
Give just the number in %; leave the unit off.

Which hERG current change (%, negative = inhibition) at 10uM is reported for this compound? CCOC(=O)c1ccc(NC(=S)N(CCN2CCCCCC2)Cc2cccs2)cc1 -11.6

Which hERG current change (%, negative = inhibition) at 10uM is reported for this compound? CC(OC(=O)c1ccc2ncsc2c1)C(=O)N1CCCC1 (stereo not shown) -56.9

Which hERG current change (%, negative = inhibition) at 10uM is reported for this compound? CCOC(=O)c1ccc(NC(=S)N(CCCN2CCN(CC)CC2)Cc2cccs2)cc1 -69.1

Which hERG current change (%, negative = inhibition) at 10uM is reported for this compound? CCCCOC(=O)NC(NCC(O)c1ccccc1)(C(F)(F)F)C(F)(F)F (stereo not shown) 6.78

Which hERG current change (%, negative = inhibition) at 10uM is reported for this compound? Cc1ccc(C(=O)c2ccccc2C(=O)O)c(O)c1 1.4

Which hERG current change (%, negative = inhibition) at 10uM is reported for this compound? Cc1nn2c(NCCN(C)C)c3c(nc2c1-c1ccccc1)CCC3 -26.7

Which hERG current change (%, negative = inhibition) at 10uM is reported for this compound? O=C(CSc1nc(=O)n(CCN2CCOCC2)c2c1CCC2)Nc1ccc(OC(F)(F)F)cc1 -71.8

Which hERG current change (%, negative = inhibition) at 10uM is reported for this compound? COc1ccc(NC(=O)CSc2nc(SC)ns2)c(OC)c1 2.53

Which hERG current change (%, negative = inhibition) at 10uM is reported for this compound? CN1CCN(S(=O)(=O)c2cccc(C(=O)N3CCN(c4ccccc4F)CC3)c2)CC1 -0.195

Which hERG current change (%, negative = inhibition) at 10uM is reported for this compound? COc1cc2ccccc2cc1C(=O)N1CCCC1 7.7

Which hERG current change (%, negative = inhibition) at 10uM is reported for this compound? COc1cc(OC)cc(-c2c(C#Cc3ccsc3)c3cc(-c4ccc5c(c4)OCCO5)ccc3n2C)c1 7.37

Which hERG current change (%, negative = inhibition) at 10uM is reported for this compound? CCN(CC)CCn1c2c(c(SCC(=O)Nc3ccc(F)c(F)c3)nc1=O)CCC2 -70.5

Which hERG current change (%, negative = inhibition) at 10uM is reported for this compound? COc1ccc(NC(=O)COC(=O)C2CC2)c(OC)c1 -0.146

Which hERG current change (%, negative = inhibition) at 10uM is reported for this compound? COc1cc2ccccc2cc1C(=O)N1CCCCC1 -0.827

Which hERG current change (%, negative = inhibition) at 10uM is reported for this compound? Cc1nn2c(Nc3ccccc3)c3c(nc2c1-c1ccccc1)CCC3 14.1

Which hERG current change (%, negative = inhibition) at 10uM is reported for this compound? Cc1nn2c(NCc3cccnc3)c3c(nc2c1-c1ccccc1)CCC3 -34.2

Which hERG current change (%, negative = inhibition) at 10uM is reported for this compound? CNC(=O)c1cccn1-c1ccsc1C(=O)OC 7.33

Which hERG current change (%, negative = inhibition) at 10uM is reported for this compound? CCN(CC)CCCn1c2c(c(SCC(=O)Nc3ccc4c(c3)OCCO4)nc1=O)CCC2 -43.4

Which hERG current change (%, negative = inhibition) at 10uM is reported for this compound? CCN(CC)CCCn1c2c(c(SCC(=O)Nc3cccc(C(C)=O)c3)nc1=O)CCC2 -59.4

Which hERG current change (%, negative = inhibition) at 10uM is reported for this compound? CC(=O)c1cccc(NC(=O)CSc2nc(=O)n(CCN3CCOCC3)c3c2CCC3)c1 -17.6

Which hERG current change (%, negative = inhibition) at 10uM is reported for this compound? CC(=O)c1cccc(NC(=O)CSc2nc(=O)n(CCCN3CCOCC3)c3c2CCC3)c1 -29.1

Which hERG current change (%, negative = inhibition) at 10uM is reported for this compound? Cc1nn2c(NCCOCCO)c3c(nc2c1-c1ccccc1)CCC3 -50.2

Which hERG current change (%, negative = inhibition) at 10uM is reported for this compound? CN(C)CCn1c2c(c(SCC(=O)Nc3ccc4c(c3)OCCO4)nc1=O)CCC2 -16.1

Which hERG current change (%, negative = inhibition) at 10uM is reported for this compound? O=C(CSc1cccc[n+]1[O-])Nc1cccc(S(=O)(=O)NC2=NCCCCC2)c1 54.8

Which hERG current change (%, negative = inhibition) at 10uM is reported for this compound? COc1cc(C(=O)NCCSc2ccc(Cl)cc2)cc(OC)c1OC -3.08

Which hERG current change (%, negative = inhibition) at 10uM is reported for this compound? O=C(c1cccc(S(=O)(=O)N2CCCCCC2)c1)N1CCN(c2ccccc2F)CC1 -58

Which hERG current change (%, negative = inhibition) at 10uM is reported for this compound? O=C(c1ccc2ncsc2c1)N1CCCCC1 17.9

Which hERG current change (%, negative = inhibition) at 10uM is reported for this compound? COCCn1c(SCC(=O)/C=C2\N(C)c3ccccc3C2(C)C)nnc1-c1ccncc1 -37.4

Which hERG current change (%, negative = inhibition) at 10uM is reported for this compound? CCOC(=O)c1ccc(NC(=S)N(CCCN2CCN(C)CC2)Cc2cccs2)cc1 -65.4

Which hERG current change (%, negative = inhibition) at 10uM is reported for this compound? CN(Cc1ccccc1)S(=O)(=O)c1ccc(N2CCCC2=O)cc1 -12.7

Which hERG current change (%, negative = inhibition) at 10uM is reported for this compound? CCCN(CC(=O)Nc1ccccc1C)C(=O)c1ccc(C)c(S(=O)(=O)N2CCCCC2)c1 -11.3

Which hERG current change (%, negative = inhibition) at 10uM is reported for this compound? COCCNc1c2c(nc3c(-c4ccccc4)c(C)nn13)CCC2 2.2

Which hERG current change (%, negative = inhibition) at 10uM is reported for this compound? CCN(CC)CCCn1c2c(c(SCC(=O)Nc3ccc(F)c(F)c3)nc1=O)CCC2 -55.1

Which hERG current change (%, negative = inhibition) at 10uM is reported for this compound? CCOC(=O)c1ccc(NC(=S)N(CCCN2CCCC2)Cc2cccs2)cc1 -67.5

Which hERG current change (%, negative = inhibition) at 10uM is reported for this compound? COCCNc1c2c(nc3c(-c4ccccc4)c(C)nn13)CCCC2 -1.34

Which hERG current change (%, negative = inhibition) at 10uM is reported for this compound? COc1ccc(-c2c(C)nn3c(N4CCCCCC4)cc(C)nc23)cc1OC 7.94

Which hERG current change (%, negative = inhibition) at 10uM is reported for this compound? CCOC(=O)c1ccc(NC(=S)N(CCCN2CCCC(C)C2)Cc2cccs2)cc1 (stereo not shown) -76.3

Which hERG current change (%, negative = inhibition) at 10uM is reported for this compound? COc1ccccc1N1CCN(C(=O)c2ccc(S(=O)(=O)N3CCCCC3)cc2)CC1 -10.2

Which hERG current change (%, negative = inhibition) at 10uM is reported for this compound? CCCCNc1c2c(nc3c(-c4ccccc4)c(C)nn13)CCC2 -3.59

Which hERG current change (%, negative = inhibition) at 10uM is reported for this compound? COC(CNC(=O)CNC(=S)N(CCCN1CCOCC1)Cc1cccs1)OC 6.42

Values from paper PMC4336329
